- experiment-notes: Kinetic Solubility
- Type: physicochemical
- study-conditions: simulated gastric fluid, kinetic from dmso stock; pH = 1; 0.2 to 100 μM; BD Gentest Solubility Scanner; read-out: Kinetic Solubility at pH = 1
Please respond with reported solubility kinetic for every item in the list.

Worked examples follow.
>>> reported_result("CNC(=O)C1(NC(=O)C(=O)c2c(C)c(C(=O)Nc3ccc(F)c(Cl)c3)c3n2CCC3)CC(F)(F)C1")
"9.1 µM"
>>> reported_result("CNC(=O)C1(NC(=O)C(=O)c2c(C)c(C(=O)Nc3ccc(F)c(F)c3)c3n2[C@H]2C[C@H]2C3)CC(F)(F)C1")
"99.4 µM"
>>> reported_result("CNC(=O)C1(NC(=O)C(=O)c2c(C)c(C(=O)Nc3ccc(F)c(F)c3)c3n2[C@@H]2C[C@@H]2C3)CC(F)(F)C1")
"92.1 µM"
>>> reported_result("Cc1c(C(=O)Nc2cc(F)c(F)c(F)c2)c2n(c1C(=O)C(=O)NC1(c3cnn[nH]3)CC(F)(F)C1)CCC2")
"50 µM"
>>> reported_result("Cc1c(C(=O)Nc2cc(F)c(F)c(F)c2)c2n(c1C(=O)C(=O)NC1(c3nncs3)CC1)CCC2")
"88.7 µM"

# context switch: different compound, same solubility kinetic
## Task Record request: solubility kinetic value, item `Cc1c(C(=O)Nc2ccc(F)c(C#N)c2)c2n(c1C(=O)C(=O)NC1(c3cnn[nH]3)CC(F)(F)C1)CCC2`
## Result 13.5 µM
